// reported half-life for each item listed
assay procedure: Determination of stability in rat plasma
Type: in vitro ADME
test parameters: 37° C., read-out: Stability t1/2 in rat plasma (converted)
measure name: half-life (h)

[
  {
    "compound": "CC(C)C(=O)OC(C)c1ccc([C@H]2C[C@@]3(C)C(CC[C@@]3(O)C(F)(F)C(F)(F)F)C3CCC4=CC(=O)CCC4=C32)cc1 (mixture of isomers) [Example 2]",
    "reading": 33.4
  },
  {
    "compound": "C=CCOC(=O)N[C@@H](C)C(=O)O[C@H](C)c1ccc([C@H]2C[C@@]3(C)[C@@H](CC[C@@]3(O)C(F)(F)C(F)(F)F)[C@@H]3CCC4=CC(=O)CCC4=C32)cc1 [Example 9]",
    "reading": 0.3
  },
  {
    "compound": "C=CCOC(=O)N[C@H](C(=O)OC(C)c1ccc([C@H]2C[C@@]3(C)C(CC[C@@]3(O)C(F)(F)C(F)(F)F)C3CCC4=CC(=O)CCC4=C32)cc1)C(C)C (mixture of isomers) [Example 16]",
    "reading": 33.2
  },
  {
    "compound": "CC(OC(=O)[C@H](C)NC(=O)OC(C)(C)C)c1ccc([C@H]2C[C@@]3(C)C(CC[C@@]3(O)C(F)(F)C(F)(F)F)C3CCC4=CC(=O)CCC4=C32)cc1 (mixture of isomers) [Example 7]",
    "reading": 3.1
  },
  {
    "compound": "CC(C)CC(=O)OC(C)c1ccc([C@H]2C[C@@]3(C)C(CC[C@@]3(O)C(F)(F)C(F)(F)F)C3CCC4=CC(=O)CCC4=C32)cc1 (mixture of isomers) [Example 3]",
    "reading": 89
  }
]

----------
Below: a set of entries, each annotated with reported half-life.
assay procedure: Determination of hydrolytic stability (5:1 dioxane/buffer, HPLC)
Format: physicochemical
test parameters: 5:1 dioxane/buffer solution, pH = 1.2, 23° C., test ended after 24 or 192 hours, read-out: Hydrolytic stability t1/2
Structures can show the parent of a compound that is named as a salt.

[
  {
    "molecule": "CC(OC(=O)[C@H](C)NC(=O)OC(C)(C)C)c1ccc([C@H]2C[C@@]3(C)C(CC[C@@]3(O)C(F)(F)C(F)(F)F)C3CCC4=CC(=O)CCC4=C32)cc1 (mixture of isomers) [Example 7]",
    "half-life": "> 24 h"
  },
  {
    "molecule": "C=CCOC(=O)N[C@H](C(=O)OC(C)c1ccc([C@H]2C[C@@]3(C)C(CC[C@@]3(O)C(F)(F)C(F)(F)F)C3CCC4=CC(=O)CCC4=C32)cc1)C(C)C (mixture of isomers) [Example 16]",
    "half-life": "> 192 h"
  },
  {
    "molecule": "CC(OC(=O)[C@@H](C)NC(=O)OC(C)(C)C)c1ccc([C@H]2C[C@@]3(C)[C@@H](CC[C@@]3(O)C(F)(F)C(F)(F)F)[C@@H]3CCC4=CC(=O)CCC4=C32)cc1 (mixture of isomers) [Example 6]",
    "half-life": "> 24 h"
  },
  {
    "molecule": "CC(OC(=O)CC(C)(C)C)c1ccc([C@H]2C[C@@]3(C)C(CC[C@@]3(O)C(F)(F)C(F)(F)F)C3CCC4=CC(=O)CCC4=C32)cc1 (mixture of isomers) [Example 4]",
    "half-life": "> 24 h"
  },
  {
    "molecule": "CC(OC(=O)[C@@H]1CCCN1C(=O)OC(C)(C)C)c1ccc([C@H]2C[C@@]3(C)C(CC[C@@]3(O)C(F)(F)C(F)(F)F)C3CCC4=CC(=O)CCC4=C32)cc1 (mixture of isomers) [Example 11]",
    "half-life": "> 192 h"
  },
  {
    "molecule": "CC(C)C(=O)OC(C)c1ccc([C@H]2C[C@@]3(C)C(CC[C@@]3(O)C(F)(F)C(F)(F)F)C3CCC4=CC(=O)CCC4=C32)cc1 (mixture of isomers) [Example 2]",
    "half-life": "> 24 h"
  },
  {
    "molecule": "CC(C)CC(=O)OC(C)c1ccc([C@H]2C[C@@]3(C)C(CC[C@@]3(O)C(F)(F)C(F)(F)F)C3CCC4=CC(=O)CCC4=C32)cc1 (mixture of isomers) [Example 3]",
    "half-life": "> 24 h"
  },
  {
    "molecule": "CC(=O)O[C@H](C)c1ccc([C@H]2C[C@@]3(C)C(CC[C@@]3(O)C(F)(F)C(F)(F)F)C3CCC4=CC(=O)CCC4=C32)cc1 (mixture of isomers) [Example 1]",
    "half-life": "> 24 h"
  },
  {
    "molecule": "CC(OC(=O)[C@@H](NC(=O)OC(C)(C)C)C(C)C)c1ccc([C@H]2C[C@@]3(C)C(CC[C@@]3(O)C(F)(F)C(F)(F)F)C3CCC4=CC(=O)CCC4=C32)cc1 (mixture of isomers) [Example 5]",
    "half-life": "> 192 h"
  },
  {
    "molecule": "CC(OC(=O)[C@@H]1CCCN1)c1ccc([C@H]2C[C@@]3(C)C(CC[C@@]3(O)C(F)(F)C(F)(F)F)C3CCC4=CC(=O)CCC4=C32)cc1 (mixture of isomers) [Example 13, hydrochloride]",
    "half-life": "> 192 h"
  },
  {
    "molecule": "CC(OC(=O)CCc1nccs1)c1ccc([C@H]2C[C@@]3(C)C(CC[C@@]3(O)C(F)(F)C(F)(F)F)C3CCC4=CC(=O)CCC4=C32)cc1 (mixture of isomers) [Example 15]",
    "half-life": "> 192 h"
  }
]

----------
assayed system: human progesterone receptor B (Homo sapiens, UniProt P06401)
Sequence (P06401 1-933): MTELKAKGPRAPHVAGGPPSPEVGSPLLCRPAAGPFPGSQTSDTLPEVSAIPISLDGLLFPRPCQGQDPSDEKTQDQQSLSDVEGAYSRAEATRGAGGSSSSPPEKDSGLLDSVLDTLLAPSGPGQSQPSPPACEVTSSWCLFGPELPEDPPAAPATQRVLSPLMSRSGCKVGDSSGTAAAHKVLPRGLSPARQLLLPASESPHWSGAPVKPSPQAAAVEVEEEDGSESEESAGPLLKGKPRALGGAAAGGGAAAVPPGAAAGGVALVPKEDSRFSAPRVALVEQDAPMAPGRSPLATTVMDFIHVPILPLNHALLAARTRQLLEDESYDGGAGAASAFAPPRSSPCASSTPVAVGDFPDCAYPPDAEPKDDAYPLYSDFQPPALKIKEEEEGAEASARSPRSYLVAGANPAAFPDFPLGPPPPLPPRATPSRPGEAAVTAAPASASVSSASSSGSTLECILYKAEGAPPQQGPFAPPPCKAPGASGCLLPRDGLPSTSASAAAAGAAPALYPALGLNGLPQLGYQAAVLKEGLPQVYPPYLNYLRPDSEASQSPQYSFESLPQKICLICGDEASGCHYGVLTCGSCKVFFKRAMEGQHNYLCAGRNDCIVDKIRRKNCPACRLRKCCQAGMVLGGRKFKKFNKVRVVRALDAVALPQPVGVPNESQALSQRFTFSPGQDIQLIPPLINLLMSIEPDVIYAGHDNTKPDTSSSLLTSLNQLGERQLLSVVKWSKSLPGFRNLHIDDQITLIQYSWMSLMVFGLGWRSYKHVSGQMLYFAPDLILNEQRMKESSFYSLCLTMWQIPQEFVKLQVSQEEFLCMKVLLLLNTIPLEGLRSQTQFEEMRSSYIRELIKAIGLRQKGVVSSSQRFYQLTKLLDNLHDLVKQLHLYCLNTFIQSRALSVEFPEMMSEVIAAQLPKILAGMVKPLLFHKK
assay procedure: Progesterone receptor transactivation test in stably transfected SK-N-MC cells (PR-B, MMTV-LUC reporter)
test parameters: 0.1 nmol/l promegestone, 24 hours, read-out: PR-B IC50 (antagonistic potency)
// values below are reported IC50

[
  {
    "compound": "CC(OC(=O)[C@@H](NC(=O)OC(C)(C)C)C(C)C)c1ccc([C@H]2C[C@@]3(C)C(CC[C@@]3(O)C(F)(F)C(F)(F)F)C3CCC4=CC(=O)CCC4=C32)cc1 (mixture of isomers)",
    "IC50 / nM": 0.8
  },
  {
    "compound": "C=CCOC(=O)N[C@@H](C)C(=O)O[C@@H](C)c1ccc([C@H]2C[C@@]3(C)[C@@H](CC[C@@]3(O)C(F)(F)C(F)(F)F)[C@@H]3CCC4=CC(=O)CCC4=C32)cc1",
    "IC50 / nM": 0.09
  },
  {
    "compound": "C=CCOC(=O)N[C@@H](C)C(=O)O[C@H](C)c1ccc([C@H]2C[C@@]3(C)[C@@H](CC[C@@]3(O)C(F)(F)C(F)(F)F)[C@@H]3CCC4=CC(=O)CCC4=C32)cc1",
    "IC50 / nM": 0.09
  },
  {
    "compound": "CC(OC(=O)[C@@H]1CCCN1C(=O)OC(C)(C)C)c1ccc([C@H]2C[C@@]3(C)C(CC[C@@]3(O)C(F)(F)C(F)(F)F)C3CCC4=CC(=O)CCC4=C32)cc1 (mixture of isomers)",
    "IC50 / nM": 0.05
  },
  {
    "compound": "C=CCOC(=O)N[C@H](C(=O)OC(C)c1ccc([C@H]2C[C@@]3(C)C(CC[C@@]3(O)C(F)(F)C(F)(F)F)C3CCC4=CC(=O)CCC4=C32)cc1)C(C)C (mixture of isomers)",
    "IC50 / nM": 0.71
  },
  {
    "compound": "Cc1nccn1CCC(=O)O[C@H](C)c1ccc([C@H]2C[C@@]3(C)[C@@H](CC[C@@]3(O)C(F)(F)C(F)(F)F)[C@@H]3CCC4=CC(=O)CCC4=C32)cc1 (single isomer, unassigned) [Example 14B]",
    "IC50 / nM": 0.15
  },
  {
    "compound": "CC(OC(=O)[C@@H](C)NC(=O)OC(C)(C)C)c1ccc([C@H]2C[C@@]3(C)[C@@H](CC[C@@]3(O)C(F)(F)C(F)(F)F)[C@@H]3CCC4=CC(=O)CCC4=C32)cc1 (mixture of isomers)",
    "IC50 / nM": 0.2
  }
]
